Experiment: amyloid nucleation score (Sup35N fusion, yeast selection) (log enrichment); library NNK3; higher = more nucleation; inactive = no reads after selection;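 further: zero at mode of non-aggregating sequences after 7 days selection at 30°C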
Property measured: amyloid nucleation score

Answered cases to consult:
{"Item sequence": "DFGCKSINCFLNATQ", "amyloid nucleation score": "inactive"}
{"Item sequence": "CCKSVKFKSLPARN", "amyloid nucleation score": 0.725}
{"Item sequence": "FYIFNWGFFGIKWYLIWNEI", "amyloid nucleation score": "inactive"}
{"Item sequence": "NCDILVLCLSCIADGRQSYE", "amyloid nucleation score": 2.96}
{"Item sequence": "GAGTGQWLDSFGVEIHHPRS", "amyloid nucleation score": "inactive"}
{"Item sequence": "FTPYICVVQLLCYCMILRIY", "amyloid nucleation score": "inactive"}

*Q* Looking for the measured amyloid nucleation score of "KTIFSDVFYLRALWCSLNRG" , can you help?
*A* inactive

*Q* Please look up its amyloid nucleation score: "WAFHFGCCNDGMVR"
*A* inactive

*Q* What does the data say about its amyloid nucleation score? Entry: "SVGVFVYLKLINLIVLGGRG"
*A* inactive

*Q* Please give the measured amyloid nucleation score for this sequence: "YSSQLILTYDTRL"
*A* inactive

*Q* Name the recorded amyloid nucleation score for "RIKSSTYSMSLVGAQ" .
*A* inactive

*Q* Would you kindly share the measured amyloid nucleation score for "SVGHSFERKWSGCHWEISNL" ?
*A* inactive

*Q* Suppose we examine the sequence "QDVAFAAEYELTKCSVLFSN" ; what amyloid nucleation score value has been reported?
*A* inactive

*Q* amyloid nucleation score lookup needed for "SYFDIFGTTDQVSVKSRMCT" , thanks.
*A* inactive

*Q* Value lookup for amyloid nucleation score; key = "HMEYLKQLFFRTVLFTDQSV"
*A* inactive

*Q* Reported amyloid nucleation score, sequence "TMGGNVIV" : ____
*A* inactive

*Q* Give its amyloid nucleation score value. Item: "RYNPFRIQELSMLFVLERTL"
*A* 0.014

---

Experiment: amyloid nucleation score (Sup35N fusion, yeast selection) (log enrichment); library NNK3; higher = more nucleation; inactive = no reads after selection
Property measured: amyloid nucleation score

Past entries and their recorded results:
{"Substance": "LDACILRFARCLEGVDYADK", "amyloid nucleation score": "inactive"}
{"Substance": "PPGLGYSMVFYSSVDMHMLS", "amyloid nucleation score": "inactive"}
{"Substance": "CLCNRDRLSSNFGGMTDKLH", "amyloid nucleation score": "inactive"}
{"Substance": "AIKYICSFSSVSVMR", "amyloid nucleation score": "inactive"}
{"Substance": "HFSSYAFLRTWTLYRHLTFM", "amyloid nucleation score": "inactive"}
{"Substance": "YFSMIVVGCVNFKELPDNRV", "amyloid nucleation score": 1.78}

*Q* What value of amyloid nucleation score has been recorded for this entry: "VPNDKVGKLRIMGREWVRSH"
*A* inactive

*Q* Could you tell me which amyloid nucleation score is on file for "WNVLPATMMRFIRDMTGH" ?
*A* inactive

*Q* May I ask what amyloid nucleation score has been recorded for "SKGLCPVWIVLYKACHSMIF" ?
*A* inactive

*Q* So what does the record say about amyloid nucleation score for "QYSHPQRIIFSF" ?
*A* -0.249

*Q* Suppose we examine the substance "IYMSRKSLVMDVWQRHRDKE" ; what amyloid nucleation score value has been reported?
*A* inactive

*Q* # query: amyloid nucleation score of entry "QRIHGLF"
*A* inactive

*Q* Given "LCCFCCDPHLR" , state its recorded amyloid nucleation score.
*A* 2.64

*Q* Return reported amyloid nucleation score; argument: "KYLGMMVKNANMLALCYAGW"
*A* -0.279

*Q* For the substance shown here, "YCCIFRRFNGKNFFSCRG" , give the reported amyloid nucleation score.
*A* inactive

*Q* Field request: amyloid nucleation score | item: "ITPTFYVARTKPMLTGGCPK"
*A* inactive

*Q* # lookup: amyloid nucleation score of "LWYYCTQEVIARRDEKA"
*A* inactive

*Q* Recorded amyloid nucleation score for "SALLKWYRYTSAWSGNDVAA" , please?
*A* inactive
